- Test system: MCF7
- PROTOCOL DETAILS: Antiproliferative activity against human MCF7 cells assessed as growth inhibition incubated for 48 hrs by MTT assay
- Assay type: functional, cell-based
- SETUP CONDITIONS: MCF7, 48 h
Define the label as 1 (yes) when IC50 is strictly less than 1000 nM and as 0 (no) in all remaining cases.

As a guide, the following entries are already answered.
Input line: API: query returns whether the compound falls strictly under 1000 nM in IC50. Query: O=C(CNc1ccc(Cl)cc1)NC1(CO)CSC2=C1C(=O)c1ccccc1C2=O (stereo unspecified)
Output line: 0 (no)

Input line: is_below(IC50, 1000 nM) for Cl.O=C(CN1CCCCC1)NC1(C(=O)NCc2ccc(Cl)cc2)CSC2=C1C(=O)c1ccccc1C2=O (stereo unspecified) ?
Output line: 1 (yes)

Input line: IC50 strictly < 1000 nM for this compound? Cl.O=C(CN1CCCCC1)NC1(CO)CSC2=C1C(=O)c1ccccc1C2=O (stereo unspecified)
Output line: 0 (no)

Input line: Please let me know if O=C(NC1(C(=O)NCc2ccc(Cl)cc2)CSC2=C1C(=O)c1ccccc1C2=O)c1ccc(Cl)cc1 (stereo unspecified) shows IC50 below 1000 nM.
Output line: 1 (yes)

Input line: I'd appreciate it if you could check whether O=C(NC1(CO)CSC2=C1C(=O)c1ccccc1C2=O)c1ccc(Cl)cc1 (stereo unspecified) has IC50 smaller than 1000 nM.
Output line: 0 (no)

More entries:
Input line: Report whether reported IC50 is lower than 1000 nM (strictly) for O=C(CNCc1ccc(Cl)cc1)NC1(CO)CSC2=C1C(=O)c1ccccc1C2=O (stereo unspecified)
Output line: 0 (no)

---

- System: H9c2
- PROTOCOL DETAILS: Cytotoxicity against rat H9c2 cell membrane assessed as induction of lipid peroxidation at 2.5 uM incubated for 48 hrs by TBARS method
- Assay type: cell-based
- SETUP CONDITIONS: h9c2, 48 h
METRIC NAME: Activity

Input line: Reported Activity, molecule COc1cccc2c1C(=O)c1c(O)c3c(c(O)c1C2=O)C[C@@](O)(C(=O)CO)C[C@@H]3O[C@H]1C[C@H](N)[C@H](O)[C@H](C)O1 [DOXORUBICIN] : ____
Output line: Toxic

Input line: Which value of Activity has been reported for Cl.O=C(CN1CCCCC1)NC1(CO)CSC2=C1C(=O)c1ccccc1C2=O (centres undefined) in the records?
Output line: Toxic

Input line: Which Activity reading was recorded for the molecule O=C(NC1(C(=O)NCc2ccc(Cl)cc2)CSC2=C1C(=O)c1ccccc1C2=O)c1ccc(Cl)cc1 (centres undefined) ?
Output line: Toxic
